target: human MGL from HeLa cells (Homo sapiens (Human), UniProt Q99685); test: MGL in vitro activity assay ([glycerol-1,3-3H]-oleoyl glycerol hydrolysis, activated carbon filtration); format: biochemical; conditions: 300 nM [Glycerol-1,3-3H]-oleoyl glycerol, one hour
Sequence (Q99685 whole entry): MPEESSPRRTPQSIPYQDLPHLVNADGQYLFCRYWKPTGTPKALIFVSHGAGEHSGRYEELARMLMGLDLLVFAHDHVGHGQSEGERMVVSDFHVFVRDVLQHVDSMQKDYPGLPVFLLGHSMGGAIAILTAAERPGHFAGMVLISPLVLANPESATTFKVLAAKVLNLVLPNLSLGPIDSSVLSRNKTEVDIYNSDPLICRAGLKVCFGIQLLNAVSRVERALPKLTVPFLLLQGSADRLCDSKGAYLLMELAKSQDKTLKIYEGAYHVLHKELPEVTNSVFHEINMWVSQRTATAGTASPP
Reported IC50 values follow for various molecules
Enter your answer as a number in nM; do not include the unit.

Solved cases below.
Request: Item under review: Cn1ccc2cnc(CC3CC4(C3)CN(C(=O)[C@H]3C[C@@](C)(O)C3)C4)cc21 . Reported IC50?
Result: 775

Request: Ok, now CCc1cc(OC(F)(F)F)cc(C2CCC3(CC2)CN(C(=O)[C@H]2C[C@@](C)(O)C2)C3)c1
Result: 9.4

Request: Check Cc1cc([C@@H]2CCC3(C2)CN(C(=O)[C@H]2C[C@@](C)(O)C2)C3)ccc1Cl too.
Result: 15

---
Request: Record request: IC50 value, item Cc1cc(C(F)(F)F)ccc1OC1CCC2(C1)CN(C(=O)[C@H]1C[C@@](C)(O)C1)C2 (mixture of isomers)
Result: 15

Request: Then this molecule: Cc1ccccc1CC1CC2(C1)CN(C(=O)[C@H]1C[C@@](C)(O)C1)C2
Result: 14

Request: // next record Cc1ccc(OC2CCC3(CC2)CN(C(=O)[C@H]2C[C@@](C)(O)C2)C3)cc1C
Result: 32

Request: // repeat for Cc1cccc(CC2CC3(C2)CN(C(=O)[C@H]2C[C@@](C)(O)C2)C3)c1 and report
Result: 21

Request: Now the molecule COc1ccc(CC2CC3(C2)CN(C(=O)[C@H]2C[C@@](C)(O)C2)C3)c(C(F)F)c1
Result: 6.2

Source listed as patent US11802111B2.
